Assay: qHTS assay for small molecule agonists of the antioxidant response element (ARE) signaling pathway - cell viability counter screen (AID 743203); further: nearly all actives have a fitted effect of over 55% in size; further: potency means the concentration at half of the fitted maximal effect
Conditions: ARE-bla HepG2 viability, CellTiter-Glo luminescence, 16 h; series mostly up to 73.3 µM
Excerpt: National Center for Advancing Translational Sciences [NCATS] NIH Chemical Genomics Center [NCGC] U.S. Environmental Protection Agency [EPA] National Institutes of Environmental Health Sciences [NIEHS] National Toxicology Program [NTP] U.S. Food and Drug Administration [FDA] Oxidative stress has been implicated in the pathogenesis of a variety of diseases ranging from cancer to neurodegeneration. […] The activation of the report gene under culture conditions can be detected by fluorescence intensity. […]
Inconclusive results are not listed. The source made the active and inactive calls. The call rests on the fitted dose curve.

>  <compound>
CC1=C(/C=C/C(C)=C/C=C/C(C)=C\C=O)C(C)(C)CCC1

>  <Potency>
51.6 µM (active)

$$$$
>  <compound>
CCN(CC)CCOC(=O)C1(C2CCCCC2)CCCCC1

>  <Potency>
inactive

$$$$
>  <compound>
Nc1ncnc2c1ncn2[C@@H]1O[C@H](COP(=O)(O)O)[C@@H](O)[C@H]1O

>  <Potency>
inactive

$$$$
>  <compound>
CNCC[C@H](Oc1cccc2ccccc12)c1cccs1

>  <Potency>
6.68 µM (active)

$$$$
>  <compound>
C=C[C@](C)(O)CC[C@@H]1[C@@]2(C)CCCC(C)(C)[C@@H]2CC[C@@]1(C)O

>  <Potency>
77 µM (active)

$$$$
>  <compound>
Oc1ccc(-c2ccccc2)c(Cl)c1

>  <Potency>
inactive

$$$$
>  <compound>
CCCCCCOc1ccc(O)cc1

>  <Potency>
inactive

$$$$
>  <compound>
CC(COC(=O)c1ccccc1)OC(=O)c1ccccc1 (stereo not drawn)

>  <Potency>
inactive

$$$$
>  <compound>
CC(CN(C)C)CN1c2ccccc2CCc2ccccc21 (stereo not drawn)

>  <Potency>
inactive

$$$$
>  <compound>
SCCCCCCCCS

>  <Potency>
43.3 µM (active)

$$$$
>  <compound>
CCCCCCCCCCCCCC[n+]1ccccc1

>  <Potency>
27.3 µM (active)

$$$$
>  <compound>
Clc1ccc(C(c2ccccc2Cl)C(Cl)Cl)cc1 (stereo not drawn)

>  <Potency>
inactive

$$$$
>  <compound>
CCCCOC(=O)C(C)CC (stereo not drawn)

>  <Potency>
inactive

$$$$

====

assay: qHTS assay to identify small molecule antagonists of the estrogen related receptor signaling pathway with the pleiotropic PPARgamma coactivator (PGC) from Tox21 10K library (AID 1224841); conditions: PGC/ERR reporter cell line, ONE-Glo luciferase, 18 h; series mostly up to 92.4 µM; further: actives are mostly falling curves and most rising ones were filed inactive; nearly all actives have a fitted effect of over 50% in size
Results filed as inconclusive are left out. Active and inactive are the calls of the source. No rule for the calls is given here.
Classes used: 1 (yes) = active, 0 (no) = inactive

>  <smiles.entry>
CCCCCCCCCC(=O)N(C)C

>  <class.name>
0 (no)

$$$$
>  <smiles.entry>
C=C(c1ccc(C(=O)O)cc1)c1cc2c(cc1C)C(C)(C)CCC2(C)C

>  <class.name>
1 (yes)

$$$$
>  <smiles.entry>
c1cc2c3c(c1)ccc1cccc(c13)C2

>  <class.name>
0 (no)

$$$$
>  <smiles.entry>
Cc1cc2c(C(C)C)c(O)c(O)c(C=O)c2c(O)c1-c1c(C)cc2c(C(C)C)c(O)c(O)c(C=O)c2c1O

>  <class.name>
1 (yes)

$$$$

# credit: PubChem BioAssay (Tox21)
